All values here come from the FLAb antibody collection.

Test Description: patients with anti-drug antibodies; higher = more immunogenic
Quick reference for patients with anti-drug antibodies among some proteins

These recorded examples may help you get a feel for the data.
Requested field: patients with anti-drug antibodies. Item: unnamed (protein) chain 1: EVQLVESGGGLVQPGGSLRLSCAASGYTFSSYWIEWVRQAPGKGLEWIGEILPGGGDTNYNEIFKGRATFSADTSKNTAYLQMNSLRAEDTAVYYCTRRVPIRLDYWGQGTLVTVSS chain 2: DIQLTQSPSSLSASVGDRVTITCKASQSVDYEGDSFLNWYQQKPGKAPKLLIYAASNLESGVPSRFSGSGSGTDFTLTISSLQPEDFATYYCQQSNEDPLTFGQGTKVEIK
2.6%

Return reported patients with anti-drug antibodies; argument: unnamed (protein) chain 1: QVQLKESGPGLVAPSQSLSITCTVSGFSVTNYGVHWVRQPPGKGLEWLGVIWAGGITNYNSAFMSRLSISKDNSKSQVFLKMNSLQIDDTAMYYCASRGGHYGYALDYWGQGTSVTVSS chain 2: SIVMTQTPKFLLVSAGDRVTITCKASQSVSNDVTWYQQKAGQSPKLLIYSASNRYSGVPDRFTGSGYGTAFTFTISTVQAEDLAVYFCQQDYSSFGGGTKLEIK
100%

Turning now to a further protein:
Item unnamed (protein) chain 1: EVQLLQSGPELEKPGASVMISCKASGSSFTGYNMNWVRQNIGKSLEWIGAIDPYYGGTSYNQKFKGRATLTVDKSSSTAYMHLKSLTSEDSAVYYCVSGMEYWGQGTSVTVSS chain 2: EIVMTQSPATLSVSPGERATLSCRSSQSLVHRNGNTYLHWYLQKPGQSPKLLIHKVSNRFSGVPDRFSGSGSGTDFTLKISRVEAEDLGVYFCSQSTHVPPLTFGAGTKLELK has what recorded patients with anti-drug antibodies?
17%
